Reported NZJU alone mean value (sensitivity, growth inhibition) values are given for each entry in this list.
System: SW620 cells
Method Description: Drug sensitivity MTT assay with TRAIL, SW620
Type: cell-based
Design: scale not given here
Measurement Conditions: drug alone (19-100 μM; TRAIL 100 ng/ml), 48 h
Give the value as a plain number.

Worked set:
sample_smiles=CCCCCCCCNC(=O)[C@@H](NC(=O)c1cc2ccccc2o1)[C@@H](C)O val=0.205
sample_smiles=CCCCCCCCNC(=O)[C@@H](NC(=O)c1cccs1)[C@@H](C)O val=0.563
sample_smiles=C/C=C/C=C/C(=O)N[C@H](C(=O)NCCCCCCCC)[C@@H](C)O val=0.551

Item: CCCCCCCCCCCCNC(=O)[C@@H](NC(=O)c1nccc2ccccc12)[C@@H](C)O | NZJU alone mean value (sensitivity, growth inhibition): −0.038

Item: CCCCCCCCCCCCNC(=O)[C@@H](NC(=O)c1ccccc1)[C@@H](C)O | NZJU alone mean value (sensitivity, growth inhibition): 0.376

Item: CCCCCCCCCCCCNC(=O)[C@@H](NC(=O)c1ccco1)[C@@H](C)O | NZJU alone mean value (sensitivity, growth inhibition): 0.126

Item: CCCCCCCCCCCCCCNC(=O)[C@@H](NC(=O)c1cccs1)[C@@H](C)O | NZJU alone mean value (sensitivity, growth inhibition): 0.315

* * *

Test system: MCF-7 cells
Method Description: Drug sensitivity MTT assay with TRAIL, MCF-7
Assay type: cell-based
Parameters: scale not given here
Measurement Conditions: drug alone (19-100 μM; TRAIL 100 ng/ml), 48 h
Assay Readout: NZJU alone mean value (sensitivity, growth inhibition)

Worked set:
compound="C/C=C/C=C/C(=O)N[C@H](C(=O)NCCCCCCCC)[C@@H](C)O [NZJU41]" val=0.347
compound="CCCCCCCCCCCCNC(=O)[C@@H](NC(=O)c1nccc2ccccc12)[C@@H](C)O [NZJU30]" val=0.002

We now examine a further compound.
Item: CCCCCCCCCCCCNC(=O)[C@@H](NC(=O)c1ccco1)[C@@H](C)O [NZJU13] | NZJU alone mean value (sensitivity, growth inhibition): 0.148

* * *

Tested on: MCF-7
Method Description: MTT cytotoxicity assay, MCF-7 (breast cancer)
Format: cell-based
Measurement Conditions: Homo sapiens, MCF7; Breast Cancer MCF-7, MTT
Assay Readout: IC50 (µM)
The reply should contain only the number, in µM.

compound="CCCCCCCCCCCCCCNC(=O)[C@@H](NC(=O)c1cccs1)[C@@H](C)O [NZJU34]" unit_of_measurement=µM val=36.1
compound="CCCCCCCCCCCCNC(=O)[C@@H](NC(=O)c1ccccc1)[C@@H](C)O [NZJU16]" unit_of_measurement=µM val=36.6
compound="C/C=C/C=C/C(=O)N[C@H](C(=O)NCCCCCCCCCCCC)[C@@H](C)O [NZJU10]" unit_of_measurement=µM val=37.1
compound="CCCCCCCCCCCCCCCCCCNC(=O)[C@@H](NC(=O)Cc1c[nH]c2ccccc12)[C@@H](C)O [NZJU29]" unit_of_measurement=µM val=37.3
compound="CCCCCCCCCCCCCCCCCCNC(=O)[C@@H](NC(=O)c1cc2ccccc2o1)[C@@H](C)O [NZJU38]" unit_of_measurement=µM val=126

Item: CCCCCCCCCCCCNC(=O)[C@@H](NC(=O)c1cc2ccccc2o1)[C@@H](C)O [NZJU36] | IC50: 20.9

Item: CCCCCCCCCCCCNC(=O)[C@@H](NC(=O)c1nccc2ccccc12)[C@@H](C)O [NZJU30] | IC50: 50.5

Item: CCCCCCCCCCCCCCNC(=O)[C@@H](N)[C@@H](C)O [NZJU46] | IC50: 10.7

Item: CCCCCCCCCCCCCCNC(=O)[C@@H](NC(=O)/C=C/c1ccccc1)[C@@H](C)O [NZJU25] | IC50: 64.6

* * *

System: MCF-7
Method Description: MTT cytotoxicity assay, MCF-7 (breast cancer)
Assay type: cell-based
Measurement Conditions: Homo sapiens, MCF7; Breast Cancer MCF-7, MTT
Reported IC50 values are given for each entry in this list.
The reply should contain only the number, in µM.

sample_smiles=CCCCCCCCCCCCCCNC(=O)[C@@H](NC(=O)Cc1c[nH]c2ccccc12)[C@@H](C)O measured_on=MCF-7 assay_readout=IC50 val=6.81
sample_smiles=CCCCCCCCNC(=O)[C@@H](NC(=O)c1cccs1)[C@@H](C)O measured_on=MCF-7 assay_readout=IC50 val=72.5
sample_smiles=CCCCCCCCCCCCCCNC(=O)[C@@H](NC(=O)c1nccc2ccccc12)[C@@H](C)O measured_on=MCF-7 assay_readout=IC50 val=22.8

We now examine a further compound.
Item: CCCCCCCCCCCCCCNC(=O)[C@@H](NC(=O)c1ccco1)[C@@H](C)O | IC50: 105
